The measurements presented in this section are drawn from the supplement of paper PMC5919970.

System: TYKNU
experimental-protocol: fractional viability relative to vehicle; TYKNU is a high-grade serous ovarian cancer line; higher = less growth inhibition
condition-notes: 2uM; 72 h; genotype: DNM1L knockout (sgDNM1L #1)
In all, about 2,000 compounds were measured (“fractional viability relative to vehicle”: median about 0.91, lowest 2% from about 0.045 on). Many of the other results were omitted from the sample, so the lowest values are more common in it than they were.
Consider the cut-off 1. If the recorded fractional viability is strictly smaller, the label is Y; if not, the label is N.

Some solved entries appear below for comparison.
O=C(O[C@H]1C[C@H]2CC[C@@H](C1)[N+]21CCCC1)C(O)(c1ccccc1)c1ccccc1 [Trospium chloride] ... Y
CC1=C(O)C(=O)C=C2C1=CC=C1[C@@]2(C)CC[C@@]2(C)[C@@H]3C[C@](C)(C(=O)O)CC[C@]3(C)CC[C@]12C ... Y
O=C(O)CNC(=O)c1c(O)c2ccccc2n(Cc2ccccc2)c1=O ... N

Alright, here's another molecule for you.
Input line: Please let me know if COc1ccc(C[C@H]2NC[C@H](O)[C@H]2OC(C)=O)cc1 shows fractional viability below 1.
Output line: Y
